Target: SerRS (Homo sapiens, UniProt P49591 1-514)
Sequence (P49591 whole entry): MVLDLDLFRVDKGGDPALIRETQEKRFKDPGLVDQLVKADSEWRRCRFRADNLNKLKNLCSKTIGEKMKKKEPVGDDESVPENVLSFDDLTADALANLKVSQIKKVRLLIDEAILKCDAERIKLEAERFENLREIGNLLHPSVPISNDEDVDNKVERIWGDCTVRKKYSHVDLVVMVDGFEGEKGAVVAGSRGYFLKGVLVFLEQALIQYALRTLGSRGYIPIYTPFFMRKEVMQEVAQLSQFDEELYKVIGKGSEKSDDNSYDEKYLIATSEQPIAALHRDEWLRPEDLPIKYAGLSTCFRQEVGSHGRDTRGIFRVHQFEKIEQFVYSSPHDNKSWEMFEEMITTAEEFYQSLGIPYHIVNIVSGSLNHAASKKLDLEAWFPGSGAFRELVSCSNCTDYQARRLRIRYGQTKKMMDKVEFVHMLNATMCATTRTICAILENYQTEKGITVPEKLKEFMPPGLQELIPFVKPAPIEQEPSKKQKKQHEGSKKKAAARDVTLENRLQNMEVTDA
Experiment: EMSA; 5 mM Mg2+; EMSA: 20 mM Tris-HCl pH 8.0, 60 mM KCl, 5 mM MgCl2, 0.1 mg/ml BSA, 10 ng/ul poly(dG-dC), 1 mM DTT, 30 min, room temperature; SPR: 10 mM HEPES pH 7.4, 150 mM NaCl, 0.005% P-20; footprint: 20 mM HEPES pH 7.9, 120 mM KCl, 8 mM MgCl2, 0.2 mM EDTA, 0.5 mM DTT, 0.2 mg/ml BSA, 10 ug/ml poly(dG-dC), 5% glycerol, room temperature
Conditions: protein: recombinant; tags: C-terminal His tag (pET-20b); chain copies: 2; label: 5' 32P
ENDPOINT: Kd (nM)

                                     binder  endpoint  numeric_value
0  VEGFA promoter 27-bp (-62 to -36) (dsDNA) DNA 1: GGCGGGGCGGAGCCATGCGCCCCCCCC DNA 2: GGGGGGGGCGCATGGCTCCGCCCCGCC        Kd            212
